Record form. Attribute: AC50. Fill in for each entry.
assay.system: human PAH with the R408W mutation (Homo sapiens, UniProt P00439, R408W)
Construct: expressed in transfected cells
Sequence (P00439 1-452 R408W): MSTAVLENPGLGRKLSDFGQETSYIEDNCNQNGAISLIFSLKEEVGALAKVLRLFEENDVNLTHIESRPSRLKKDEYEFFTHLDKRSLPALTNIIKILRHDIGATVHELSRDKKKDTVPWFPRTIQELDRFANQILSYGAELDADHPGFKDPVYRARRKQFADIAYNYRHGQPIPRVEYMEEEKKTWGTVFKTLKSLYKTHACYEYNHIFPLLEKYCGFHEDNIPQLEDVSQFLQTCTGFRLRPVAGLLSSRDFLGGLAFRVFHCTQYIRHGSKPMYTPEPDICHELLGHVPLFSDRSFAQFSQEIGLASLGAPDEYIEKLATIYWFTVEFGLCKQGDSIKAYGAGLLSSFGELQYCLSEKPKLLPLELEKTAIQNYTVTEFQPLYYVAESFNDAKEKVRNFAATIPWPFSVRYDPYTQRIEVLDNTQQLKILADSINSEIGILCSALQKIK
method.description: Cell Based Phenylalanine Flux Assay
condition.context: A375 cells expressing human R408W PAH; 24 hrs compound incubation; 13C-Tyrosine by LC-MS; average where tested multiple times; read-out: AC50

# batch: return AC50 for each of the 2 compounds below
1. O=C(c1ncco1)N1CCc2[nH]cnc2[C@H]1c1nc2cccc(F)c2s1
2. O=C(c1cnc(-c2ncccc2F)s1)N1CCc2[nH]cnc2[C@@H]1c1nc2ccccc2s1

Response given:
1000 to 5000 nM
500 to 1000 nM

# batch: return AC50 for each of the 2 compounds below
1. O=C(c1nc(Cl)cs1)N1CCc2[nH]cnc2[C@H]1c1nc2ccc(Cl)cc2[nH]1
2. Cn1nc(C(C)(C)C#N)nc1C(=O)N1CCc2[nH]cnc2[C@@H]1c1nc2c(F)cccc2s1

Response given:
1: 500 to 1000 nM; 2: 1000 to 5000 nM

* * *

assay.system: human PAH with the R408W mutation (Homo sapiens, UniProt P00439, R408W)
Construct: expressed in transfected cells
method.description: Cell Based Phenylalanine Flux Assay
condition.context: A375 cells expressing human R408W PAH; 24 hrs with compound; 13C-Tyrosine by LC-MS; average where tested multiple times; read-out: AC50
measurement.name: AC50

# batch: return AC50 for each of the 6 molecules below
1. O=C(c1oc(-c2ccccn2)nc1-c1ccccc1)N1CCc2[nH]cnc2C1c1nc2ccccc2s1 (stereo not shown)
2. O=C(c1cnn2cc(Br)ccc12)N1CCc2[nH]cnc2[C@H]1c1nc2ccccc2[nH]1
3. O=C(c1nncs1)N1CCc2[nH]cnc2C1c1nc2ccc(F)cc2s1 (stereo not shown)
4. Cn1nc(C2CC2)nc1C(=O)N1CCc2[nH]cnc2C1c1nc2c(F)cccc2s1 (stereo not shown)
5. Cn1ncc(C(=O)N2CCc3[nH]cnc3C2c2nc3c(F)cccc3s2)c1Br (stereo not shown)
6. Cc1ncoc1C(=O)N1CC2(CC2)c2[nH]cnc2C1c1nc2c(F)cccc2s1 (stereo not shown)

Response given:
1: 1 to 5 µM; 2: 1 to 5 µM; 3: > 5 µM; 4: > 5 µM; 5: 1 to 5 µM; 6: 1 to 5 µM

# batch: return AC50 for each of the 4 molecules below
1. O=C(c1nc2ccccc2s1)N1CCc2[nH]cnc2C1c1nc2ccccc2[nH]1 (stereo not shown)
2. O=C(c1ccon1)N1CCc2[nH]cnc2[C@H]1c1nc2ccccc2[nH]1
3. Cn1nc(C2CC2)cc1C(=O)N1CCc2[nH]cnc2C1c1nc2c(F)cccc2s1 (stereo not shown)
4. c1ccc2[nH]c(C3c4nc[nH]c4CCN3Cc3cncs3)nc2c1 (stereo not shown)

Response given:
1 to 5 µM
1 to 5 µM
1 to 5 µM
> 5 µM

* * *

Record form. Attribute: AC50. Fill in for each entry.
assay.system: human PAH with the R408W mutation (Homo sapiens, UniProt P00439, R408W)
Construct: expressed in transfected cells
method.description: Cell Based Phenylalanine Flux Assay
condition.context: A375 cells expressing human R408W PAH; 24 hrs compound incubation; 13C-Tyrosine by LC-MS; average where tested multiple times; read-out: AC50

Worked examples, 7 molecules total:
CCc1nnc(CCC(=O)N2CCc3[nH]cnc3[C@H]2c2nc3ccccc3s2)s1 [Example 1115]    500 to 1000 nM
CC(C)(O)c1cc(C(=O)N2CCc3[nH]cnc3[C@@H]2c2nc3c(F)cccc3s2)on1 [Example 2169]    1000 to 5000 nM
O=C(c1cnc(-c2ccc(F)cn2)o1)N1CCc2[nH]cnc2[C@H]1c1nc2ccccc2s1 [Example 1337]    < 500 nM
O=C(c1nncs1)N1CCc2[nH]cnc2[C@@H]1c1nc2ccccc2s1 [Example 1067]    > 5000 nM
CC(C)(C#N)c1nc(C(F)F)c(C(=O)N2CCc3[nH]cnc3[C@H]2c2nc3c(F)cccc3s2)o1 [Example 2027]    < 500 nM
CN1CCN(c2nc(C(F)(F)F)c(C(=O)N3CCc4[nH]cnc4[C@H]3c3nc4ccccc4s3)o2)CC1 [Example 1573]    < 500 nM
CC(C)(O)c1nc(C(F)F)c(C(=O)N2CCc3[nH]cnc3[C@@H]2c2nc3c(F)cccc3s2)o1 [Example 1774]    1000 to 5000 nM

Okay, next one:
The molecule O=C(c1ncco1)N1CCc2[nH]cnc2[C@@H]1c1nc2cccc(F)c2s1 [Example 1280] , tested on human PAH with the R408W mutation (Homo sapiens, UniProt P00439, R408W), showed AC50 of 1000 to 5000 nM

* * *

Record form. Attribute: AC50. Fill in for each entry.
assay.system: human PAH with the R408W mutation (Homo sapiens, UniProt P00439, R408W)
Construct: expressed in transfected cells
method.description: Cell Based Phenylalanine Flux Assay
condition.context: A375 cells expressing human R408W PAH; 24 hrs with compound; 13C-Tyrosine by LC-MS; average where tested multiple times; read-out: AC50

c1ccc2oc(N3CCc4[nH]cnc4C3c3nc4ccccc4s3)nc2c1 (centres unmarked)    > 5 µM
O=C(c1cnn2cc(Cl)ccc12)N1CCc2nc[nH]c2C1c1nc2cc(F)ccc2s1 (centres unmarked)    > 5 µM

# batch: return AC50 for each of the 3 molecules below
1. Cc1ncc(C(=O)N2CCc3[nH]cnc3C2c2nc3ccccc3s2)o1 (centres unmarked)
2. Cn1ncc(C(=O)N2CCc3[nH]cnc3C2c2nc3c(F)cccc3s2)c1Cl (centres unmarked)
3. CC(=O)N1CCc2[nH]cnc2[C@H]1c1nc2ccccc2s1 (single isomer, unassigned)

Response given:
1 to 5 µM
> 5 µM
1 to 5 µM

* * *

assay.system: human PAH with the R408W mutation (Homo sapiens, UniProt P00439, R408W)
Construct: expressed in transfected cells
method.description: Cell Based Phenylalanine Flux Assay
condition.context: A375 cells expressing human R408W PAH; 24 hrs compound incubation; 13C-Tyrosine by LC-MS; average where tested multiple times; read-out: AC50
measurement.name: AC50

O=C(CCC1CC1)N1CCc2nc[nH]c2[C@H]1c1nc2c(F)cccc2s1 [Example 1113]    1 to 5 µM

# batch: return AC50 for each of the 3 molecules below
1. O=C(c1cnc(NC2CC2)s1)N1CCc2[nH]cnc2[C@@H]1c1nc2ccccc2s1 [Example 1184]
2. Cc1cnc(C(=O)N2CCc3[nH]cnc3[C@H]2c2nc3ccccc3s2)s1 [Example 1055]
3. O=C(c1ncco1)N1CCc2[nH]cnc2[C@H]1c1nc2c(F)cccc2s1 [Example 1225]

Response given:
1. 1 to 5 µM
2. 0.5 to 1 µM
3. 0.5 to 1 µM

* * *

assay.system: human PAH with the R408W mutation (Homo sapiens, UniProt P00439, R408W)
Construct: expressed in transfected cells
method.description: Cell Based Phenylalanine Flux Assay
condition.context: A375 cells expressing human R408W PAH; 24 hrs compound incubation; 13C-Tyrosine by LC-MS; average where tested multiple times; read-out: AC50
Record form. Attribute: AC50. Fill in for each entry.

O=C(c1cnn2cc(Br)ccc12)N1CCc2[nH]cnc2[C@H]1c1nc2c(F)cccc2s1    500 to 1000 nM
Cc1nc([C@@H](C)O)oc1C(=O)N1CCc2[nH]cnc2[C@H]1c1nc2c(F)cccc2s1    500 to 1000 nM
CC(C)n1cc(-c2ncc(C(=O)N3CCc4[nH]cnc4[C@H]3c3nc4ccccc4s3)o2)cn1    < 500 nM
CC(C)(F)c1ncc(C(=O)N2CCc3[nH]cnc3[C@H]2c2nc3ccccc3s2)o1    < 500 nM
O=C(c1cnn2ccccc12)N1CCc2[nH]cnc2[C@@H]1c1nc2cccc(Cl)c2[nH]1    > 5000 nM
CN(C)CCc1nc(C(F)(F)F)c(C(=O)N2CCc3[nH]cnc3[C@H]2c2nc3c(F)cccc3s2)o1    < 500 nM

Okay, next one:
Summary for this molecule, CC(C)(C)n1ncc(C(=O)N2CCc3[nH]cnc3[C@H]2c2nc3c(F)cccc3s2)c1Cl : AC50 is 500 to 1000 nM
